Molecular target: T1, MAdCAM (analyte of the BIAcore experiment) (UniProt Q13477 19-317)
T1 construct: The antibodies are called anti-hMAdCAM; also called Mucosal addressin cell adhesion molecule
T1 sequence (looked up): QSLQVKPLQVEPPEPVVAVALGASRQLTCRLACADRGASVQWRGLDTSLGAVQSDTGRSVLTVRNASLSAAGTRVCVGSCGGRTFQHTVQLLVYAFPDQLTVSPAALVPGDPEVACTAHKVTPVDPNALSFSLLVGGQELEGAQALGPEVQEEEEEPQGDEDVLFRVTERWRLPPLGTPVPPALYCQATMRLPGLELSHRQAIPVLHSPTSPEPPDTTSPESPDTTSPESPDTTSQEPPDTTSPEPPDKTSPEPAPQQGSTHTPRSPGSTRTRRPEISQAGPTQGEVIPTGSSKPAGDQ
Experiment: BIAcore (SPR); antibody immobilised, MAdCAM injected
MEASURED PROPERTY: pKd
Friendly reminder that pKd comes from taking -log10 of the concentration in mol/L.

Briefly, pKd measured for 7.16.6_L (antibody, V domains shown, The light chain is the parent 7.16.6 kappa chain, rebuilt as for m1; also called 7.16.6_L variant) VH: QVQLVQSGAEVKKPGASVKVSCKASGYTFTSYGINWVRQAPGQGLEWMGWISVYSGNTNYAQKLQGRVTMTADTSTSTAYMDLRSLRSDDTAVYYCAREGSSSSGDYYYGMDVWGQGTTVTVSS VL: DIVMTQTPLSLSVTPGQPASISCKSSQSLLHTDGTTYLYWYLQKPGQPPQLLIYEVSNRFSGVPDRFSGSGSGTDFTLKISRVEAEDVGIYYCMQNIQLPWTFGQGTKVEIKR : 10.10
